# measurement.notes: Long-term stability in spiked pooled human plasma
# protocol.conditions: validation standard 2xLLOV
Reported values of Long-term stability, 1 month, -20°C Accuracy [%] for individual entries
Numbers only; they are read as %.

Below, each entry is followed by its recorded Long-term stability, 1 month, -20°C Accuracy [%] result.
COc1cc(N2CCC(N3CCN(C)CC3)CC2)ccc1Nc1ncc(Cl)c(Nc2ccccc2P(C)(C)=O)n1; 92.4
CCOc1cc2ncc(C#N)c(Nc3ccc(OCc4ccccn4)c(Cl)c3)c2cc1NC(=O)/C=C/CN(C)C; 79.9
COC(=O)c1ccc2c(c1)NC(=O)/C2=C(\Nc1ccc(N(C)C(=O)CN2CCN(C)CC2)cc1)c1ccccc1; 97.2
COc1cc2ncnc(Nc3ccc(F)c(Cl)c3)c2cc1NC(=O)/C=C/CN1CCCCC1; 94.4
O=C(Nc1cnn2ccc(N3CCC[C@@H]3c3cc(F)ccc3F)nc12)N1CC[C@H](O)C1; 97.9

Record "CNC(=O)c1cc(Oc2ccc(NC(=O)Nc3ccc(Cl)c(C(F)(F)F)c3)c(F)c2)ccn1" , field Long-term stability, 1 month, -20°C Accuracy [%]: 101.2

Record "CC(=O)Nc1cccc(-n2c(=O)n(C3CC3)c(=O)c3c(Nc4ccc(I)cc4F)n(C)c(=O)c(C)c32)c1" , field Long-term stability, 1 month, -20°C Accuracy [%]: 105.1

---

Reported values of Autosampler (72h, 4°C) Accuracy [%] for individual entries
# measurement.notes: Autosampler stability of ready for injection samples
# Assay type: physicochemical, human
# protocol.conditions: validation standard 2xLLOV
Numbers only; they are read as %.

Below, each entry is followed by its recorded Autosampler (72h, 4°C) Accuracy [%] result.
COc1cc2c(Nc3ccc(Br)cc3F)ncnc2cc1OCC1CCN(C)CC1; 102.7
C=CC(=O)Nc1cc(Nc2nccc(-c3cn(C)c4ccccc34)n2)c(OC)cc1N(C)CCN(C)C; 99.1
Cc1ccc(NC(=O)c2ccc(CN3CCN(C)CC3)cc2)cc1Nc1nccc(-c2cccnc2)n1; 116.1
CNC(=O)c1cc(Oc2ccc(NC(=O)Nc3ccc(Cl)c(C(F)(F)F)c3)cc2)ccn1; 104.1
CNC(=O)c1ccc(N2C(=S)N(c3cnc(C#N)c(C(F)(F)F)c3)C(=O)C23CCC3)cc1F [Apalutamide]; 105.1
CS(=O)(=O)CCNCc1ccc(-c2ccc3ncnc(Nc4ccc(OCc5cccc(F)c5)c(Cl)c4)c3c2)o1; 102.1
Cc1nc(Nc2ncc(C(=O)Nc3c(C)cccc3Cl)s2)cc(N2CCN(CCO)CC2)n1; 106.3
COc1cc2nccc(Oc3ccc(NC(=O)NC4CC4)c(Cl)c3)c2cc1C(N)=O; 97.9

Record "O=C(c1ccc(F)c(F)c1Nc1ccc(I)cc1F)N1CC(O)([C@@H]2CCCCN2)C1" , field Autosampler (72h, 4°C) Accuracy [%]: 100.8

Record "C[C@]12CC[C@H](O)CC1=CC[C@@H]1[C@@H]2CC[C@]2(C)C(c3cccnc3)=CC[C@@H]12" , field Autosampler (72h, 4°C) Accuracy [%]: 97.9

Record "C#Cc1cccc(Nc2ncnc3cc(OCCOC)c(OCCOC)cc23)c1" , field Autosampler (72h, 4°C) Accuracy [%]: 98.1

Record "COC(=O)c1ccc2c(c1)NC(=O)/C2=C(\Nc1ccc(N(C)C(=O)CN2CCN(C)CC2)cc1)c1ccccc1" , field Autosampler (72h, 4°C) Accuracy [%]: 104.4

Record "COc1cc(N2CCC(N3CCN(C)CC3)CC2)ccc1Nc1ncc(Cl)c(Nc2ccccc2P(C)(C)=O)n1" , field Autosampler (72h, 4°C) Accuracy [%]: 91.9

Record "O=c1[nH]c(=O)n([C@H]2C[C@H](O)[C@@H](CO)O2)cc1C(F)(F)F" , field Autosampler (72h, 4°C) Accuracy [%]: 107.4

Record "CN(C)C/C=C/C(=O)Nc1cc2c(Nc3ccc(F)c(Cl)c3)ncnc2cc1O[C@H]1CCOC1" , field Autosampler (72h, 4°C) Accuracy [%]: 99.3

Record "O=C(c1cc(Cc2n[nH]c(=O)c3ccccc23)ccc1F)N1CCN(C(=O)C2CC2)CC1" , field Autosampler (72h, 4°C) Accuracy [%]: 100.5

Entry source: paper PMC8699473
